System: HEK-293T
ASSAY METHOD TEXT: Multiplex assay against HEK293T
Assay type: toxicity, cell-based
RUN CONDITIONS: human, 12 h, 10 µM, compound concentration 10 uM, replicate 2
// values below are reported Population Normal (%)
Write down the value, and be sure its unit follows.

TEST SMILES: Cc1ccc(NC(=O)Nc2cc(C(F)(F)F)ccc2F)cc1Nc1ccc2c(c1)NC(=O)/C2=C\c1ccc[nH]1
Population Normal (%): 97%
--
TEST SMILES: CC(C)[C@H](CO)Nc1nc(Nc2cccc(Cl)c2)c2ncn(C(C)C)c2n1
Population Normal (%): 92%
--
TEST SMILES: NC(=O)c1ccc2nc(-c3ccc(C4(N)CCC4)cc3)c(-c3ccccc3)n2n1
Population Normal (%): 97%
--
TEST SMILES: CC[C@@H]1C(=O)N(C)c2cnc(Nc3ccc(C(=O)NC4CCN(C)CC4)cc3OC)nc2N1C1CCCC1
Population Normal (%): 96%
--
TEST SMILES: CCCCN(CC)c1nc(C)nc2c1c(C)cn2-c1c(C)cc(C)cc1C.Cl
Population Normal (%): 92%

Given the entry CC(C)c1cc(Nc2nc(N3CCC[C@H](N)C3)ncc2C(N)=O)cc(C(C)C)n1 , report its measured Population Normal (%).
94%

Given the entry c1ccc(-c2oc3ncnc(NC[C@@H]4CCCO4)c3c2-c2ccccc2)cc1 , report its measured Population Normal (%).
92%

Given the entry Cc1ccc(S(=O)(=O)NC2c3ccccc3Oc3ccccc32)cc1 , report its measured Population Normal (%).
94%

Given the entry CC[C@@]1(O)C(=O)OCc2c1cc1n(c2=O)Cc2cc3ccccc3nc2-1 , report its measured Population Normal (%).
97%

Given the entry CN(c1cc(C(F)(F)F)nc(OCCC(=O)O)n1)c1cccc2c1CCC2 , report its measured Population Normal (%).
97%

----------
System: U2OS
ASSAY METHOD TEXT: Multiplex assay against U2OS
Assay type: toxicity, cell-based
RUN CONDITIONS: human, 12 h, 10 µM, compound concentration 10 uM, replicate 2
READOUT: Total Cell Count
Answer with a number only.

Example entries begin here.
COMPOUND: CCCc1cc(C)[nH]c(=O)c1CNC(=O)c1cc(-c2ccc(N3CCN(C(C)C)CC3)nc2)cc2c1cnn2C(C)C
TARGET OF ASSAY: U2OS
RECORDED RESULT: 57
--
COMPOUND: N#Cc1cccc(C(=O)Nc2cc(-c3ccccc3)nn2-c2ccccc2)c1
TARGET OF ASSAY: U2OS
RECORDED RESULT: 72
--
COMPOUND: CC[C@@]1(O)C(=O)OCc2c1cc1n(c2=O)Cc2cc3ccccc3nc2-1
TARGET OF ASSAY: U2OS
RECORDED RESULT: 131
--
COMPOUND: N#CCNC(=O)c1ccc(-c2ccnc(Nc3ccc(N4CCOCC4)cc3)n2)cc1
TARGET OF ASSAY: U2OS
RECORDED RESULT: 56
--
COMPOUND: CN1C(=O)[C@@H](NC(=O)c2cc3ccccc3[nH]2)N=C(c2ccccc2)c2ccccc21 [DEVAZEPIDE]
TARGET OF ASSAY: U2OS
RECORDED RESULT: 65
--
COMPOUND: CC(C)c1cc(Nc2nc(N3CCC[C@H](N)C3)ncc2C(N)=O)cc(C(C)C)n1
TARGET OF ASSAY: U2OS
RECORDED RESULT: 55
--
COMPOUND: CCCCN(CC)c1nc(C)nc2c1c(C)cn2-c1c(C)cc(C)cc1C.Cl
TARGET OF ASSAY: U2OS
RECORDED RESULT: 78
--
COMPOUND: CCOc1ccn(-c2ccc(F)cc2)c(=O)c1C(=O)Nc1ccc(Oc2ccnc(N)c2Cl)c(F)c1
TARGET OF ASSAY: U2OS
RECORDED RESULT: 118

Attention now turns to another entry.
Given the entry Oc1cccc(-c2nc(N3CCOCC3)c3oc4ncccc4c3n2)c1 , report its measured Total Cell Count.
69
